- Test system: RPMI-8226 leukemia
- experiment notes: NCI-60 one-dose screen, 48 h
- assay conditions: 10 µM unless noted
About 83,000 compounds went through this panel and 20% of them were active in at least one assay; those are over-represented in the sample as a whole. The source made the active and inactive calls. The calls were made as follows: active = growth percent below 10; inactive = the rest.
Outcome codes: active, inactive

>  <molecule>
COc1cc2c(c(OC)c1OC)C(=O)CC(c1cccc(NC(=O)c3ccc(C#N)cc3)c1)O2 (centres undefined)

>  <system tested>
RPMI-8226 leukemia

>  <label class>
inactive

$$$$
>  <molecule>
COc1ccc(N2CCN(C(=O)c3sc4nc(C)c(Br)c(C)c4c3N)CC2)cc1

>  <system tested>
RPMI-8226 leukemia

>  <label class>
inactive

$$$$
>  <molecule>
C=C1C(=O)O[C@H]2[C@H]1CC/C(COC(=O)c1cc3cc(Cl)ccc3[nH]1)=C\CC[C@@]1(C)O[C@@H]21

>  <system tested>
RPMI-8226 leukemia

>  <label class>
active

$$$$
>  <molecule>
c1ccc(CCNc2c3ccccc3nc3ccccc23)cc1

>  <system tested>
RPMI-8226 leukemia

>  <label class>
inactive

$$$$
>  <molecule>
Fc1cccc(-c2ccc3c(c2)C2(CCNCC2)CN3)c1

>  <system tested>
RPMI-8226 leukemia

>  <label class>
inactive

$$$$
>  <molecule>
Cc1ccc2c(=O)cc(C(=O)Nc3sc4c(c3C(=O)NCc3cccnc3)CCCC4)oc2c1C

>  <system tested>
RPMI-8226 leukemia

>  <label class>
inactive

$$$$
>  <molecule>
CCCCCCCCCCCCCOC(=O)c1c(C)[nH]c(/C=C2\N=C(c3ccc[nH]3)C=C2OC)c1C

>  <system tested>
RPMI-8226 leukemia

>  <label class>
inactive

$$$$
>  <molecule>
O=S(=O)(NCCNc1nccc(-c2c(-c3ccc(F)c(O)c3)nc3sccn23)n1)c1ccc(F)cc1

>  <system tested>
RPMI-8226 leukemia

>  <label class>
inactive

$$$$
>  <molecule>
CCOC(=O)c1c(C)nc2ccccc2c1/C=C/c1cccs1

>  <system tested>
RPMI-8226 leukemia

>  <label class>
inactive

$$$$

====

- System: NCI-H460 lung
- experiment notes: NCI-60 one-dose screen, 48 h (100 = growth as untreated, 0 = no growth, -100 = all killed)
- assay conditions: 10 µM unless noted
The panel holds about 83,000 compounds, 20% with a hit somewhere; the sample as a whole holds those more often.
Under this convention, criterion met denotes growth strictly below 80% and criterion not met denotes growth at or above 80%.

>  <molecular string>
CS(=O)(=O)Nc1cc(-c2ccc3ncc(C#N)c(Nc4ccc(F)c(Cl)c4)c3c2)cnc1Cl

>  <label class>
criterion met

$$$$
>  <molecular string>
C[C@H](CCCC(=O)NCC#CCN1CCN(C)CC1)[C@H]1CC[C@H]2[C@@H]3CC[C@@H]4CC(=O)CC[C@]4(C)[C@H]3CC[C@]12C

>  <label class>
criterion not met

$$$$
>  <molecular string>
COc1cccc(CNc2c3ccccc3nc3ccccc23)c1

>  <label class>
criterion met

$$$$
>  <molecular string>
O=C(NNc1cnccn1)c1nc2cc(F)ccc2n2cccc12

>  <label class>
criterion met

$$$$
>  <molecular string>
O=C1Nc2ccccc2/C1=C/c1cccn1C(=O)c1ccc(Cl)s1

>  <label class>
criterion met

$$$$
>  <molecular string>
CN(C)S(=O)(=O)Oc1ccc(-c2sc3cc(OS(=O)(=O)N(C)C)ccc3c2C(=O)c2ccc(OCCN3CCCCC3)cc2)cc1

>  <label class>
criterion met

$$$$
>  <molecular string>
Cc1ccc2c(=O)cc(C(=O)Nc3sc4c(c3C(=O)NCc3cccnc3)CCCC4)oc2c1C

>  <label class>
criterion not met

$$$$
>  <molecular string>
Cc1ccccc1Nc1cc(O)c2c(=O)cc(-c3ccccc3)oc2c1

>  <label class>
criterion met

$$$$
>  <molecular string>
O=C(N/N=C\c1ccccc1S(=O)(=O)O)N/N=C/c1ccccc1S(=O)(=O)O

>  <label class>
criterion not met

$$$$

====

- System: UACC-257 melanoma
- experiment notes: NCI-60 one-dose screen, 48 h (100 = growth as untreated, 0 = no growth, -100 = all killed)
- assay conditions: 10 µM unless noted
The panel holds about 83,000 compounds, 20% with a hit somewhere; the sample as a whole holds those more often. The source made the active and inactive calls. The calls were made as follows: active = growth percent below 10; inactive = the rest.

>  <compound>
C[C@]1(O)CC(=O)[C@]2(O)C3=C(C=C[C@]2(O)C1)C(=O)c1c(O)cccc1C3=O

>  <system tested>
UACC-257 melanoma

>  <growth>
77.3% (inactive)

$$$$
>  <compound>
Fc1cccc(-c2ccc3c(c2)C2(CCNCC2)CN3)c1

>  <system tested>
UACC-257 melanoma

>  <growth>
126% (inactive)

$$$$
>  <compound>
CN1CCN(CCOc2ccc(-c3cnc4c(-c5ccc(F)cc5)cnn4c3)cc2)CC1

>  <system tested>
UACC-257 melanoma

>  <growth>
28.4% (inactive)

$$$$
>  <compound>
CC1(C)N=C(N)N=C(N)N1c1ccc(CCCCc2ccccc2)c(Cl)c1

>  <system tested>
UACC-257 melanoma

>  <growth>
3.22% (active)

$$$$
>  <compound>
Cc1c2ccncc2c(C)c2c1c1cc(CO)ccc1n2C

>  <system tested>
UACC-257 melanoma

>  <growth>
-39.2% (active)

$$$$
>  <compound>
COc1ccc(C2=NN(C(C)=O)C(c3cn(-c4ccccc4)nc3-c3ccc(Cl)cc3)C2)cc1 (stereo not given)

>  <system tested>
UACC-257 melanoma

>  <growth>
66.4% (inactive)

$$$$
>  <compound>
Cc1ccc2nc(NC(=O)CSc3nc(-c4ccccc4)c(C#N)c4nnnn34)sc2c1

>  <system tested>
UACC-257 melanoma

>  <growth>
108% (inactive)

$$$$
>  <compound>
N#C/C(=C\C=C\c1ccc(-c2cc(Cl)ccc2Cl)o1)c1nc2ccccc2s1

>  <system tested>
UACC-257 melanoma

>  <growth>
95% (inactive)

$$$$
>  <compound>
c1ccc(CCNc2c3ccccc3nc3ccccc23)cc1

>  <system tested>
UACC-257 melanoma

>  <growth>
55.2% (inactive)

$$$$
>  <compound>
CC(C)(C)c1cc(Cl)c(O)c(CNCCO)c1

>  <system tested>
UACC-257 melanoma

>  <growth>
110% (inactive)

$$$$

====

Quick reference for growth among some compounds
- Test system: LOX IMVI melanoma
- experiment notes: NCI-60 one-dose screen, 48 h (100 = growth as untreated, 0 = no growth, -100 = all killed)
- assay conditions: 10 µM unless noted
The panel holds about 83,000 compounds, 20% with a hit somewhere; the sample as a whole holds those more often. Active and inactive are the calls of the source. Rule for the calls: active = growth percent below 10; inactive = the rest.

>  <molecular string>
Nc1[nH]n2cc(-c3ccc(F)cc3)nc2c1N=Nc1ccc(S(N)(=O)=O)cc1

>  <growth>
64.5% (inactive)

$$$$
>  <molecular string>
O=S(=O)(NCCCNc1nccc(-c2c(-c3cccc(F)c3)nc3occn23)n1)c1ccc(F)cc1

>  <growth>
44.7% (inactive)

$$$$
>  <molecular string>
O=C1Nc2ccccc2/C1=C\c1c[nH]c2ccc(Br)cc12

>  <growth>
50.6% (inactive)

$$$$
>  <molecular string>
O=C(Nc1ccccc1N1CCCC1=O)c1oc2ccc(F)cc2c1-c1cnn(-c2ccccc2)c1

>  <growth>
42.2% [50 µM] (inactive)

$$$$
>  <molecular string>
O=C(CN1CCCCCC1)Nc1nc2ccc(NCc3ccc(Cl)cc3)cc2s1

>  <growth>
96.7% (inactive)

$$$$
>  <molecular string>
CN1CCN(C(=O)C(C)(C)c2ccc(C(=O)Nc3cn4cc(-c5ccncc5)ccc4n3)cc2)CC1

>  <growth>
-19.9% (active)

$$$$
>  <molecular string>
CCCCCCCC/C=C\CCCCCCCCOc1ccc(CC(=O)NCC[N+]2(C)CCOCC2)cc1

>  <growth>
84.2% (inactive)

$$$$
>  <molecular string>
COc1ccc(C(=O)c2cc3c(N)c(C(=O)Nc4ccccc4)sc3nc2C)cc1

>  <growth>
53.6% (inactive)

$$$$
>  <molecular string>
COc1ccc2c(c1)CCc1[nH]nc(-c3cc(OC)c(OC)c(OC)c3)c1-2

>  <growth>
5.34% (active)

$$$$

====

Quick reference for growth among some molecules
- Tested on: SK-MEL-28 melanoma
- experiment notes: NCI-60 one-dose screen, 48 h (100 = growth as untreated, 0 = no growth, -100 = all killed)
- assay conditions: 10 µM unless noted
Compounds without any hit were thinned out: in the full panel of roughly 83,000, 20% have a hit. Calls of active or inactive are those of the source. Rule for the calls: active = growth percent below 10; inactive = the rest.
reported endpoint: growth

>  <molecule>
CCN(CC)c1ccc(CNc2cc(C)nc3ccccc23)cc1

>  <reported endpoint>
growth

>  <reading>
78.4% (inactive)

$$$$
>  <molecule>
CCOC(=O)c1c(C)nc2c(c1N)/C(=C/c1ccc(OC)cc1)C(=O)N2Cc1ccccc1

>  <reported endpoint>
growth

>  <reading>
78.5% (inactive)

$$$$
>  <molecule>
Cc1cc2c(cc1C)N(C(=O)CCl)CC(=O)N2

>  <reported endpoint>
growth

>  <reading>
77.1% (inactive)

$$$$
>  <molecule>
CCOC(=O)C1=C(C)/C(=C\c2[nH]c(C)c(C(=O)OCC)c2C)N=C1C

>  <reported endpoint>
growth

>  <reading>
88.3% (inactive)

$$$$
>  <molecule>
CCN(CC)Cc1cc(Nc2ccnc3cc(Cl)ccc23)ccc1O

>  <reported endpoint>
growth

>  <reading>
94.9% (inactive)

$$$$
>  <molecule>
C=C(C)[C@@H]1CC[C@]2(COC(C)=O)CC[C@]3(C)[C@H](CC[C@@H]4[C@@]5(C)CCCN(C(C)=O)C(C)(C)[C@@H]5CC[C@]43C)[C@@H]12

>  <reported endpoint>
growth

>  <reading>
96.6% (inactive)

$$$$
>  <molecule>
COc1ccc(-c2cc(-c3ccccc3)nc(N3CCN(CCNc4ccnc5cc(Cl)ccc45)CC3)n2)cc1

>  <reported endpoint>
growth

>  <reading>
-93.1% (active)

$$$$
>  <molecule>
O=C(Nc1ccccc1N1CCCC1=O)c1oc2ccc(F)cc2c1-c1cnn(-c2ccccc2)c1

>  <reported endpoint>
growth

>  <reading>
72% [50 µM] (inactive)

$$$$
>  <molecule>
O=C(Nc1cnc(Nc2ccc(N3CCOCC3)nc2)nc1Oc1ccc(C(F)(F)F)cc1)c1ccncc1

>  <reported endpoint>
growth

>  <reading>
95.8% (inactive)

$$$$
>  <molecule>
Cc1nnc(-c2ccc3c(c2)nc(/C=C/c2ccccc2)n3C2CCCCC2)o1

>  <reported endpoint>
growth

>  <reading>
72.4% (inactive)

$$$$
>  <molecule>
O=C(Nc1ncc(Cc2cc(C(F)(F)F)ccc2Cl)s1)c1cccs1

>  <reported endpoint>
growth

>  <reading>
67.5% (inactive)

$$$$
>  <molecule>
COc1cc(/C=C/C(=O)c2ccc(-n3cc(CN4CCN(c5cc6c(cc5F)c(=O)c(C(=O)O)cn6C5CC5)CC4)nn3)cc2)ccc1O

>  <reported endpoint>
growth

>  <reading>
95.8% (inactive)

$$$$
>  <molecule>
N#Cc1c(-c2ccccc2)nc(SCc2nnc(-c3ccc(Cl)cc3)o2)[nH]c1=O

>  <reported endpoint>
growth

>  <reading>
110% (inactive)

$$$$
>  <molecule>
O=C(CSc1nnc(-c2cc(-c3ccccc3)nc3ccccc23)n1-c1ccccc1)Nc1ccc(C(=O)/C=C/c2ccc(Cl)cc2)cc1

>  <reported endpoint>
growth

>  <reading>
99.8% (inactive)

$$$$
>  <molecule>
Clc1ccc(-c2cc(-c3ccccc3)nc(NCCNc3ccnc4cc(Cl)ccc34)n2)cc1

>  <reported endpoint>
growth

>  <reading>
-62.1% (active)

$$$$
>  <molecule>
COc1ccc2c(c1)c(-c1nc(-c3c[nH]c4ncccc34)cs1)cn2CCO

>  <reported endpoint>
growth

>  <reading>
78.5% (inactive)

$$$$
>  <molecule>
CCOC(=O)C(Cc1ccc(OC)cc1)C(=O)OCC

>  <reported endpoint>
growth

>  <reading>
51.5% (inactive)

$$$$
>  <molecule>
CC[N+]1(CC)CC[N+]2(CCCC(C)CC2)CC1 (centres undefined)

>  <reported endpoint>
growth

>  <reading>
104% (inactive)

$$$$
>  <molecule>
O=C1NC(=O)/C(=C/c2c(-c3ccccc3)nc3sc(COc4ccccc4)nn23)S1

>  <reported endpoint>
growth

>  <reading>
110% (inactive)

$$$$
